# study-system: human IL-1β (human, UniProt P01584 117-269)
# protocol-text: cell-based or functional assay
measured-quantity: ND50 (nM)

Some solved cases for reference:
ABT2-65-8 (other) VH: EVQLLESGGGLVQPGGSLRLSCAASGFTFEDYQMGWVRQAPGKGLEWVSSISAMGNRTYYADSVKGRFTISRDDSKNTLYLQMNSLRAEDTAVYYCAQNLVRMDSRRWMFDYWGQGTLVTVSS
3
ABT2-108-533X (other) VH: EVQLLESGGGLVQPGGSLRLSCAASGFTFADEGMMWVRQAPGKGLEWVSRIGQDGKNTYYADSVKGRFTISRDNSKNTLYLQMNSLRAEDTAVYYCAKYTGRILGHHLFDYWGQGTLVTVSS
5

[a] ABT2-10 (other) VH: EVQLLESGGGLVQPGGSLRLSCTASGFTFNRYNMAWARQAPGKGLEWVSEIDLKGSQTYYADSVKGRFTISRDNSKNTLYLQMNSLRAEDTAVYYCAKVSISAYHMFDYWGQGTLVTVSS
[b] ABT2-65-113 (other, VH dAb) VH: EVQLLESGGGLVQPGGSLRLSCAASGFTFVQYQMGWVRQAPGKGLEWVSSISAMGNRTYYADSVKGRFTISRDDSKNTLYLQMNSLRAEDTAVYYCAQNLVRLGRSRWMFDYWGQGTLVTVSS
Of the two listed items, which has the higher ND50? First: a Second: b Lab note: record the label of whichever item you select.
a
